Please go through the items and note down their Population Fragmented Nuclei (%).
Test system: HEK-293T
Experiment: Multiplex assay against HEK293T
Format: toxicity, cell-based
Conditions: human, 24 h, 10 µM, compound concentration 10 uM, replicate 2
Numeric only. Scale: %

Request: Given the entry `C[C@@H]1C[C@H]2[C@@H]3CCC4=CC(=O)C=C[C@]4(C)[C@@]3(F)[C@@H](O)C[C@]2(C)[C@@]1(O)C(=O)CO` , report its measured Population Fragmented Nuclei (%).
Result: 9

Request: Given the entry `CC(=O)NCCc1c(Cc2ccccc2)[nH]c2ccccc12` , report its measured Population Fragmented Nuclei (%).
Result: 11

Request: Given the entry `Oc1c(CN2CCN(c3ccccn3)CC2)cc(Cl)c2cccnc12` , report its measured Population Fragmented Nuclei (%).
Result: 21

Request: Given the entry `CC(C)(C)c1ccc(S(=O)(=O)Nc2ccc(Cl)cc2C(=O)c2cc[n+]([O-])cc2)cc1` , report its measured Population Fragmented Nuclei (%).
Result: 7

Request: Given the entry CCCN1CCC[C@@H]2Cc3n[nH]cc3C[C@H]21.Cl [QUINPIROLE HYDROCHLORIDE] , report its measured Population Fragmented Nuclei (%).
Result: 7

Request: Given the entry O=S(=O)(c1ccccc1)c1cnc2c(N3CCNCC3)cccc2c1 [INTEPIRDINE] , report its measured Population Fragmented Nuclei (%).
Result: 9

Request: Given the entry CSc1ccccc1N1CCN(CCCCCC(=O)NC2CCCc3ccccc32)CC1.Cl (centres undefined) , report its measured Population Fragmented Nuclei (%).
Result: 7

Request: Given the entry `N#Cc1c(N)nc(SCc2csc(-c3ccc(Cl)cc3)n2)c(C#N)c1-c1ccc(OCCO)cc1` , report its measured Population Fragmented Nuclei (%).
Result: 4

Request: Given the entry `CCCn1c(=O)c2[nH]c(C3CCCC3)nc2n(CCC)c1=O` , report its measured Population Fragmented Nuclei (%).
Result: 7

====

Tested on: U2OS
Assay: Multiplex assay against U2OS
Format: toxicity, cell-based
Settings: human, 12 h, 10 µM, compound concentration 10 uM, replicate 1
Property name: Population Pyknosed Nuclei (%)
Numeric only. Scale: %

Request: Can you look up Population Pyknosed Nuclei (%) on U2OS for CC1(COc2ccc3c(c2)ncn3-c2ccc3cccc(N4CCC(N)CC4)c3n2)COC1 [CRENOLANIB] ?
Result: 44

Request: Can you look up Population Pyknosed Nuclei (%) on U2OS for O=C(O)c1cc2ccccc2c(Cc2c(O)c(C(=O)O)cc3ccccc23)c1O [PAMOIC ACID] ?
Result: 4

Request: Can you look up Population Pyknosed Nuclei (%) on U2OS for COc1ccc2c(c1)C(C(=O)N(Cc1ccc(N(C)C)cc1)c1ccc(C(C)C)cc1)CCC2.Cl (stereo not drawn) ?
Result: 22

Request: Can you look up Population Pyknosed Nuclei (%) on U2OS for CCNC1(C(N)=O)CCN(c2ncnc3c2nc(-c2ccccc2Cl)n3-c2ccc(Cl)cc2)CC1 [OTENABANT] ?
Result: 19

Request: Can you look up Population Pyknosed Nuclei (%) on U2OS for Cc1ccc(/C(=C\CN2CCCC2)c2ccccn2)cc1 [TRIPROLIDINE] ?
Result: 9

Request: Can you look up Population Pyknosed Nuclei (%) on U2OS for C[C@H]1[C@H]2CC[C@H]3[C@@H]4CC=C5C[C@@H](N(C)C)CC[C@]5(C)[C@H]4CC[C@]23CN1C [CONESSINE] ?
Result: 8

Request: Can you look up Population Pyknosed Nuclei (%) on U2OS for c1cc(OCCCN2CCCCC2)ccc1CN1CCCCC1 [JNJ-5207852] ?
Result: 8

Request: Can you look up Population Pyknosed Nuclei (%) on U2OS for `Cc1nc2ccc(Oc3ccc(F)cc3)cc2c(=O)n1C[C@H]1CCCN(C(C)C)C1.Cl` ?
Result: 15

Request: Can you look up Population Pyknosed Nuclei (%) on U2OS for CN1CCN2c3ncccc3Cc3ccccc3C2C1 (stereo not drawn) [MIRTAZAPINE] ?
Result: 8

Request: Can you look up Population Pyknosed Nuclei (%) on U2OS for C[C@H](NC(=O)c1c(C(F)F)nn(C)c1Oc1cccc(C(F)(F)F)c1)c1ccc(C(=O)O)cc1 [PALUPIPRANT] ?
Result: 8

Request: Can you look up Population Pyknosed Nuclei (%) on U2OS for `COc1c(C)cc(NC(=O)c2nn(Cc3ccc(F)cc3)c3c2CN(C(=O)c2ccc[nH]2)C[C@]3(C)C(N)=O)cc1C` ?
Result: 29

Request: Can you look up Population Pyknosed Nuclei (%) on U2OS for `O=C(NCCO)c1cccc(-c2cc(Nc3ccc(OC(F)(F)F)cc3)ncn2)c1` ?
Result: 12

Request: Can you look up Population Pyknosed Nuclei (%) on U2OS for CNC[C@H](O)c1ccc(O)c(O)c1 [EPINEPHRINE] ?
Result: 13

Request: Can you look up Population Pyknosed Nuclei (%) on U2OS for `CCCn1c(=O)c2[nH]c(C3CCCC3)nc2n(CCC)c1=O` ?
Result: 9

Request: Can you look up Population Pyknosed Nuclei (%) on U2OS for CC(=O)NCCc1c(Cc2ccccc2)[nH]c2ccccc12 [LUZINDOLE] ?
Result: 7

Request: Can you look up Population Pyknosed Nuclei (%) on U2OS for CCCC(CCC)C(=O)O [VALPROIC ACID] ?
Result: 3

Request: Can you look up Population Pyknosed Nuclei (%) on U2OS for `CC[C@H]1OC(=O)[C@H](C)[C@@H](O[C@H]2C[C@@](C)(OC)[C@@H](O)[C@H](C)O2)[C@H](C)[C@@H](O[C@@H]2O[C@H](C)C[C@H](N(C)C)[C@H]2O)[C@@]2(C)CC(C)=C(O2)[C@H](C)[C@@H](O)[C@]1(C)O` ?
Result: 25

Request: Can you look up Population Pyknosed Nuclei (%) on U2OS for Cl.Clc1ccc2nsnc2c1NC1=NCCN1 [TIZANIDINE HYDROCHLORIDE] ?
Result: 6
